Each entry below carries its reported k(Cdk2)/k(GSH) rate enhancement.
Molecular target: human cyclin-dependent kinase 2 (Cdk2) (Homo sapiens)
Construct: poly-histidine; made in house; host or cells: E. coli
Experiment: Kinetic thiol consumption assay with wild type Cdk2 (C177)
Format: binding
Settings: model thiol glutathione
MEASURED ATTRIBUTE: k(Cdk2)/k(GSH) rate enhancement

1) C=CC(=O)N1CCN(c2cccc3cccnc23)CC1 [EL-1156] ... 1.062
2) C=CC(=O)N1CCn2c(C(=O)NC3CC3)ccc2C1C (stereo not drawn) [CA-040] ... 0.8399
3) C=CC(=O)N1CCCC2(CCCc3ccccc32)C1 (stereo not drawn) [CA-084] ... 0.8701
4) C=CC(=O)N1CCN(C(=O)OC(C)(C)C)c2ccccc21 [EL-1157] ... 1.592
5) C=CC(=O)NCc1ccc(-c2csnn2)cc1 [BN-66] ... 0.5565
6) C=CC(=O)N1CCC(NC(=O)C2CCC2)C1 (stereo not drawn) [CA-088] ... 0.4399
